- System: M. tuberculosis H37Rv mutant 5N (trpA D54G)
- Assay type: cell-based, Mycobacterium tuberculosis
READOUT KIND: MIC

Use these answered entries as a reference point.
[[record]]
compound = "O=C(COc1ccccc1)Nc1cccc2[nH]ccc12 [C2, N-(1H-indol-4-yl)-2-phenoxyacetamide]"
readout_kind = "MIC"
reported = "25 µM"

[[record]]
compound = "NNC(=O)c1ccncc1 [INH, isoniazid, reference compound]"
readout_kind = "MIC"
reported = "0.12 µM"

[[record]]
compound = "Nc1cccc2[nH]ccc12 [4-AI, 4-aminoindole, reference compound]"
readout_kind = "MIC"
reported = "100 µM"

[[record]]
compound = "O=C(Nc1cccc2[nH]ccc12)C1CCCCC1 [C3, N-(1H-indol-4-yl)cyclohexanecarboxamide]"
readout_kind = "MIC"
reported = ">100 µM"

[[record]]
compound = "CNS(=O)(=O)c1ccc2c(c1)CCN2C(=O)c1ccc(C)s1 [C5, reference compound]"
readout_kind = "MIC"
reported = "0.19 µM"


Now for the compound whose MIC we want.
So, `O=C(Nc1cccc2[nH]ccc12)c1ccc(OCC(F)(F)F)cn1` ? Its MIC was 25 µM
